molecular target: D(2) dopamine receptor (Homo sapiens, UniProt P14416); experiment: Binding affinity to human dopamine D2 receptor
Sequence (P14416 whole entry): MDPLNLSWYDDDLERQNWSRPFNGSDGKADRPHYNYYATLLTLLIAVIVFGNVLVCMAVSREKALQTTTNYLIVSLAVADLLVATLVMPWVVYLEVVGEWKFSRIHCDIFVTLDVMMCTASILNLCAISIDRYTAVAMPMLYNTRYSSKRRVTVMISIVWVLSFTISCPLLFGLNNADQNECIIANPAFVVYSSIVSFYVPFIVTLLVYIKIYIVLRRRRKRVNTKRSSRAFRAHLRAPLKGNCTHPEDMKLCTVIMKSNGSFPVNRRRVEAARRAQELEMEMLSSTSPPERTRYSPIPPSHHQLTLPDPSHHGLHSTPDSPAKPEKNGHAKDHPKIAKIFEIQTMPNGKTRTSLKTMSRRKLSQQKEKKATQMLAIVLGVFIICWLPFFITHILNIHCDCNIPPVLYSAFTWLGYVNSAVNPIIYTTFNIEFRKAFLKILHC
quantity measured: Ki (nM)

structure notation	quantity measured	data value
CC(C)Oc1ccccc1N1CCN([C@H]2CC[C@H](NS(=O)(=O)c3ccc(Cl)cc3F)CC2)CC1	Ki	42
CC(C)Oc1ccccc1N1CCN([C@H]2CC[C@@H](NS(=O)(=O)c3cccc(C(F)(F)F)c3)CC2)CC1	Ki	118
CC(C)Oc1ccccc1N1CCN([C@H]2CC[C@H](NS(=O)(=O)c3cnc(Cl)c(Br)c3)CC2)CC1	Ki	80
CC(C)Oc1ccccc1N1CCN([C@H]2CC[C@@H](NS(=O)(=O)c3cc(Cl)ccc3F)CC2)CC1	Ki	356

----------
System: Alpha-1A adrenergic receptor (Homo sapiens) | Read-out: Ki
Sequence (P35348 whole entry): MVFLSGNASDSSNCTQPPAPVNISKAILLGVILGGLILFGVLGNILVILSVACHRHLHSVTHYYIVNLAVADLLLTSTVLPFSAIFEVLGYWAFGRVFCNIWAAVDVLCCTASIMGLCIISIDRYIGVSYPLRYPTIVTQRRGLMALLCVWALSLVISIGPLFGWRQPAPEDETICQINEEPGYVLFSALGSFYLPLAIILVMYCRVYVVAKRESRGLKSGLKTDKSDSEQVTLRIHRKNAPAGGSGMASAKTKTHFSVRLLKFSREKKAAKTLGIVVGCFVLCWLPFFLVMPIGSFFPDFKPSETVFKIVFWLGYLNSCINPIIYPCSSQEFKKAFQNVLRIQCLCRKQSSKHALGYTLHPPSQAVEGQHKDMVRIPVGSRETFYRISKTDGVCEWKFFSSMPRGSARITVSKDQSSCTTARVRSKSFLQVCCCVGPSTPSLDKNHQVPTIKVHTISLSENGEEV

compound	unit symbol	Ki
Cc1ccc(S(=O)(=O)N[C@H]2CC[C@@H](N3CCN(c4ccccc4OC(C)C)CC3)CC2)cc1Cl	nM	11
COc1ccc(C(F)(F)F)cc1S(=O)(=O)N[C@H]1CC[C@H](N2CCN(c3ccccc3OC(C)C)CC2)CC1	nM	25
COc1ccc(Cl)cc1S(=O)(=O)N[C@H]1CC[C@@H](N2CCN(c3ccccc3OC(C)C)CC2)CC1 (stereo in doubt; form 2)	nM	11
COc1ccc(Cl)cc1S(=O)(=O)N[C@H]1CC[C@@H](N2CCN(c3ccccc3OCC3CC3)CC2)CC1	nM	19
O=S(=O)(N[C@H]1CC[C@@H](N2CCN(c3ccccc3OCC3CC3)CC2)CC1)c1cc(Cl)ccc1F	nM	36
COc1ccc(S(=O)(=O)N[C@H]2CC[C@@H](N3CCN(c4ccccc4OCC4CC4)CC3)CC2)cc1OC	nM	189
COc1ccc(Cl)cc1S(=O)(=O)N[C@H]1CC[C@@H](N2CCN(c3ccccc3OC(C)C)CC2)CC1 (stereo in doubt; form 1)	nM	1

----------
target: UniProt:P14416; assay: Binding affinity to human dopamine D2 receptor
This listing pairs molecules with measured Ki.

molecule	unit symbol	Ki
COc1ccc(Cl)cc1S(=O)(=O)N[C@H]1CC[C@H](N2CCN(c3ccccc3OC(C)C)CC2)CC1	nM	78
COc1ccc(Cl)cc1S(=O)(=O)N[C@H]1CC[C@@H](N2CCN(c3ccccc3OC(C)C)CC2)CC1 (stereo in doubt; form 1)	nM	101
COc1ccc(S(=O)(=O)N[C@H]2CC[C@@H](N3CCN(c4ccccc4OCC4CC4)CC3)CC2)cc1OC	nM	123
CC(C)Oc1ccccc1N1CCN([C@H]2CC[C@H](NS(=O)(=O)c3ccc(Cl)cc3Cl)CC2)CC1	nM	76
COc1ccc(OC)c(S(=O)(=O)N[C@H]2CC[C@H](N3CCN(c4ccccc4OC(C)C)CC3)CC2)c1	nM	62
COc1ccc(S(=O)(=O)N[C@H]2CC[C@@H](N3CCN(c4ccccc4OC(C)C)CC3)CC2)cc1OC (stereo in doubt; form 1)	nM	94
